These measurements were taken from patent US11001590B2.

Molecular target: C. elegans Slo-1a (Caenorhabditis elegans, UniProt Q95V25)
Sequence (Q95V25 whole entry): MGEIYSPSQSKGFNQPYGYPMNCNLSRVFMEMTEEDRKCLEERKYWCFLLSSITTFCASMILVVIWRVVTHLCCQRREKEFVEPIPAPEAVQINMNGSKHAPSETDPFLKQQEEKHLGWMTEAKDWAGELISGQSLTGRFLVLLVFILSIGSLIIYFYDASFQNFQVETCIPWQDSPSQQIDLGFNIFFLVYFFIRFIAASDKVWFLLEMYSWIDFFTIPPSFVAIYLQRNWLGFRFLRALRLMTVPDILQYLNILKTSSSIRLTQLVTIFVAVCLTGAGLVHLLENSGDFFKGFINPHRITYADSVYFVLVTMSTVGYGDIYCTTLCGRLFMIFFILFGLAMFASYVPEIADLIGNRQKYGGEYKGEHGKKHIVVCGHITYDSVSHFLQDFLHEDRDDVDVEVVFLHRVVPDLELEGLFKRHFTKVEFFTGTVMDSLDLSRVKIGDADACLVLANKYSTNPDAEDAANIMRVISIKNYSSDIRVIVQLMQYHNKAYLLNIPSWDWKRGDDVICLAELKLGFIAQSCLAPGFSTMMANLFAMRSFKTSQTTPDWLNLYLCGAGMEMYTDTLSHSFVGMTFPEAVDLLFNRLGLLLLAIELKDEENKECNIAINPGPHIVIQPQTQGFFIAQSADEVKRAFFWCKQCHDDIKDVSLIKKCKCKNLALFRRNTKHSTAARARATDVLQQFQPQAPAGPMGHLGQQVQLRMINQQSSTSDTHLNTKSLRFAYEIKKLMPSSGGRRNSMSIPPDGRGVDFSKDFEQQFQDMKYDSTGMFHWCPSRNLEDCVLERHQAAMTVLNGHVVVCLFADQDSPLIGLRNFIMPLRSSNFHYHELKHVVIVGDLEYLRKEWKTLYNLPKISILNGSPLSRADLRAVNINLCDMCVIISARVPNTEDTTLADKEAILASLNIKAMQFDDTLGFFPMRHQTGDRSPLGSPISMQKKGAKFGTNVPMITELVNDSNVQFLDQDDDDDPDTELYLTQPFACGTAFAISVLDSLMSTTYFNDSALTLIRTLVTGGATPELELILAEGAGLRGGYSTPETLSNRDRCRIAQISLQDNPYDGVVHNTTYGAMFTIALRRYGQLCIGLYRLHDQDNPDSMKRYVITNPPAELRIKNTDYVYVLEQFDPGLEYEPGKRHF
Assay: In vitro assay 1: C. elegans Slo-1a, action at a recombinant C. elegans CHO cell line (membrane potential measurement)
Conditions: CHO cells expressing C. elegans Slo-1a; voltage sensitive dye, FLIPR Tetra; negative decadic logarithm of EC50
Please go through the items and note down their pE50.
Give the figure by itself; no unit, no explanation.

What pE50 value was documented for this compound, Cc1nn2c(N(C)C)c(C(=O)N[C@H]3CCOc4ccccc43)cnc2c1-c1c(F)ccc(F)c1F ? 8.7

What pE50 value was documented for this compound, CC(C)c1c(C(=O)N[C@H]2CCOc3ccccc32)cnc2c(-c3c(F)ccc(Cl)c3F)c(C(F)F)nn12 ? 8.8

What pE50 value was documented for this compound, CC(C)c1c(C(=O)N[C@H]2CCc3ccccc32)cnc2c(-c3ccccc3Cl)cnn12 ? 7.2
